Source listed as patent US10501493B2.

# TESTED ON: S. aureus SPase (Staphylococcus aureus)
# Construct: Full length His-tagged S. aureus SPase protein was expressed similarly; His-tag; made in house; host or cells: E. coli BL21(DE3)
# PROTOCOL SUMMARY: Enzymatic fluorogenic substrate cleavage assay for IC50
# Format: biochemical
EXPERIMENTAL ENDPOINT: IC50

// query Form entry - test system: S. aureus SPase (Staphylococcus aureus); read-out: IC50; compound: CCCCCCCCCCCCCCCC(=O)N(C)[C@H](CO)C(=O)N[C@H](C)C(=O)NCC(=O)N(C)[C@@H]1C(=O)N[C@@H](C)C(=O)N[C@H](C(=O)NCC(=O)NS(C)(=O)=O)Cc2ccc(O)c(c2)-c2cc1ccc2O
// result 1 to 10 µM

// query And what about the compound CCCCCCCCCCCCCCCC(=O)N(C)[C@H](CO)C(=O)N[C@H](C)C(=O)NCC(=O)N(C)[C@@H]1C(=O)N[C@@H](C)C(=O)N[C@H](C(=O)OC[C@H](C)N)Cc2ccc(O)c(c2)-c2cc1ccc2O ?
// result 1 to 10 µM

// query How about CCCCCCCCCCCCCCCC(=O)N(C)[C@H](CO)C(=O)N[C@H](C)C(=O)NCC(=O)N(C)[C@@H]1C(=O)N[C@@H](C)C(=O)N[C@H](C(=O)O)Cc2ccc(OC)c(c2)-c2cc1ccc2OC ?
// result 1 to 10 µM

// query Try this compound next: CCCCCCCCCCCCCCCC(=O)N(C)[C@H](CO)C(=O)N[C@H](C)C(=O)NCC(=O)N(C)[C@@H]1C(=O)N[C@@H](C)C(=O)N[C@H](C(=O)N[C@@H](CO)C(C)C)Cc2ccc(O)c(c2)-c2cc1ccc2O
// result > 10 µM

// query Next: CCCCCCCCCCCCCCCC(=O)N(C)[C@H](CO)C(=O)N[C@H](C)C(=O)NCC(=O)N(C)[C@@H]1C(=O)N[C@@H](C)C(=O)N[C@H](C(=O)NCC(O)C(=O)OC)Cc2ccc(O)c(c2)-c2cc1ccc2O (stereo partly drawn)
// result > 10 µM

// query Now try CCCCCCCCCCCCCCCC(=O)N(C)[C@H](CO)C(=O)N[C@H](CCc1ccccc1)C(=O)NCC(=O)N(C)[C@@H]1C(=O)N[C@@H](C)C(=O)N[C@H](C(=O)O)Cc2ccc(O)c(c2)-c2cc1ccc2O .
// result < 1 µM

// query Try the compound CCCCCCCCCCCCCCCC(=O)N(C)[C@H](CO)C(=O)N[C@H](C)C(=O)NCC(=O)N(C)[C@@H]1C(=O)N[C@@H](C)C(=O)N[C@H](C(=O)N[C@H](CO)CCC)Cc2ccc(O)c(c2)-c2cc1ccc2O
// result > 10 µM

// query Another compound to look at: CCCCCCCCCCCCCCCC(=O)N(C)[C@H](CO)C(=O)N[C@H](C)C(=O)NCC(=O)N(C)[C@@H]1C(=O)N[C@@H](C)C(=O)N[C@H](C(=O)NCCOC)Cc2ccc(O)c(c2)-c2cc1ccc2O
// result > 10 µM

// query Now consider CCCCCCCCCCCCCCCC(=O)N(C)C(CO)C(=O)N[C@H](C)C(=O)NCC(=O)N(C)[C@@H]1C(=O)N[C@@H](C)C(=O)NC(C(=O)NCC(O)C(N)=O)Cc2ccc(O)c(c2)-c2cc1ccc2O (stereo partly drawn) and answer again.
// result > 10 µM

// query Then this compound: CCCCCCCCCCCCCCCC(=O)N[C@H](CO)C(=O)N[C@H](C)C(=O)N[C@@H](C)C(=O)N(C)[C@@H]1C(=O)N[C@@H](C)C(=O)N[C@H](C(=O)O)Cc2ccc(O)c(c2)-c2cc1ccc2O
// result < 1 µM

// query Input CCCCCCCCCCCCCCCC(=O)N(C)[C@H](CO)C(=O)N[C@H](C)C(=O)NCC(=O)N(C)[C@@H]1C(=O)N[C@@H](C)C(=O)N[C@H](C(=O)NCC(O)C(=O)O)Cc2ccc(O)c(c2)-c2cc1ccc2O (stereo partly drawn)
// result > 10 µM

// query CCCCCCCCCCCCCCCC(=O)N(C)[C@H](CO)C(=O)N[C@H](C)C(=O)N[C@@H](C)C(=O)N(C)[C@@H]1C(=O)N[C@@H](C)C(=O)N[C@H](C(=O)O)Cc2ccc(O)c(c2)-c2cc1ccc2O , same question.
// result < 1 µM

// query Field entry: CCCCCCCCCCCCCCCC(=O)N[C@H](CCN)C(=O)N[C@H](C)C(=O)NCC(=O)N(C)[C@@H]1C(=O)N[C@@H](C)C(=O)N[C@H](C(=O)O)Cc2ccc(O)c(c2)-c2cc1ccc2O
// result < 1 µM

// query Note, next up: CCCCCCCCCCC(=O)N(C)[C@H](CO)C(=O)N[C@H](C)C(=O)NCC(=O)N(C)[C@@H]1C(=O)N[C@@H](C)C(=O)N[C@H](C(=O)O)Cc2ccc(O)c(c2)-c2cc1ccc2O
// result 1 to 10 µM

// query Item: CCCCCCCCCCCCCCCC(=O)N(C)[C@H](CO)C(=O)N[C@H](C)C(=O)N(C)CC(=O)N(C)[C@@H]1C(=O)N[C@@H](C)C(=O)N[C@H](C(=O)O)Cc2ccc(O)c(c2)-c2cc1ccc2O
// result < 1 µM

// query Follow-up item: CCCCCCCCCCCCCCCC(=O)N(C)[C@H](CO)C(=O)N[C@H](C)C(=O)NCC(=O)N(C)[C@@H]1C(=O)N[C@@H](C)C(=O)N[C@H](C(=O)N[C@H](CO)C(C)O)Cc2ccc(O)c(c2)-c2cc1ccc2O (stereo partly drawn)
// result > 10 µM

// query Can you check CCCCCCCCCCCCCCCC(=O)N(C)[C@H](CO)C(=O)N[C@H](C)C(=O)NCC(=O)N(C)[C@@H]1C(=O)N[C@@H](C)C(=O)N[C@H](C(=O)NCCO)Cc2ccc(O)c(c2)-c2cc1ccc2O next?
// result 1 to 10 µM

// query Moving on to CCCCCCCCCCCCCCCC(=O)N(C)[C@H](CO)C(=O)N[C@H](C)C(=O)NCC(=O)N(C)[C@@H]1C(=O)N[C@@H](C)C(=O)N[C@H](C(=O)N[C@H](CO)Cc2cnc[nH]2)Cc2ccc(O)c(c2)-c2cc1ccc2O
// result > 10 µM
